system: LXRb homodimer (NR concentration 270 nM); assay: PBM binding z-score (relative to random genomic background probes); higher = stronger binding; sequences stand for … in GC…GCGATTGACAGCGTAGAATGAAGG
Each entry falls into one class according to its PBM binding z-score; the ranges are category 1 (below -0.8), category 2 (-0.8 to below 1), category 3 (1 or more)

# example entries with known answers
INSERT INTO results (ordered_residues, target_system, answer_label) VALUES
  ('CCTACTGGGCCATCAGGTCATTGGTATCAACGTT', 'LXRb homodimer (NR concentration 270 nM)', 'category 2'),
  ('CAAGCTAGGTCACGAAAGGTCAAAGTCGAATGAC', 'LXRb homodimer (NR concentration 270 nM)', 'category 3'),
  ('CAAACTAGGTCAAGAGGTCAAGGTCCGCTTCCCG', 'LXRb homodimer (NR concentration 270 nM)', 'category 3'),
  ('CAAATTAGGTCACGAAAGGTCAAAGTCGAATGAC', 'LXRb homodimer (NR concentration 270 nM)', 'category 3'),
  ('TCTAGCAGACCAGAGGGTCACTCAAGAGGTACGG', 'LXRb homodimer (NR concentration 270 nM)', 'category 1'),
  ('AGTTAAAGTTCACTAGGTAACGTAAGATTCAGCT', 'LXRb homodimer (NR concentration 270 nM)', 'category 3'),
  ('CCGACTGGGGCAAGGTTACCAAAACGCACAGCCA', 'LXRb homodimer (NR concentration 270 nM)', 'category 1'),
  ('TCTTGTAGATCGAGCAGGTTAAGAAAGCCTGAGT', 'LXRb homodimer (NR concentration 270 nM)', 'category 2');

State the class of the sequence shown: "TCTATTAGTTGAAGGGCTACCGACGAGTCCGTTT" category 2

Into which bin does this sequence go? "CGTCAAAGTTCAAGGTACCGTAACAGAAAGCAGC" category 2

----------
tested on: PPARg:RXRa 30nM:10nM, anti-RXR (NR concentration 30 nM, RXRa partner concentration 10 nM); experiment: PBM binding z-score (relative to random genomic background probes); higher = stronger binding; sequences stand for … in GC…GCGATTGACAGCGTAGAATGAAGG
Here the recorded PBM binding z-score is given for each entry.
API doc: respond with a numeric literal and nothing else, no unit.

Recorded PBM binding z-score, per entry:
INSERT INTO assay_data (ordered_residues, reported_value) VALUES
  ('ATCTCTATGTAAAGTTCAGTGAAAGATCGATAGA', 2.03),
  ('ACTCGGAGGACAAAGGTCAGATCTACGCCAGTGA', 5.45);

Name the recorded PBM binding z-score for "CGAGCTAGGTCATCCAGGACAGTGAATACATTGA" . 0.528

Need PBM binding z-score of "ACTCGGAGGACAAAGGTCAGAGCCACGCCAGTGA" , thanks. 6.19

----------
system: PPARg:RXRa 30nM:10nM, anti-RXR (NR concentration 30 nM, RXRa partner concentration 10 nM); assay: PBM binding z-score (relative to random genomic background probes); higher = stronger binding; sequences stand for … in GC…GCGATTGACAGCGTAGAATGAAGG
Here the recorded PBM binding z-score is given for each entry.
Respond with the number and no other words.

Look over these answered cases.
INSERT INTO assay_data (ordered_residues, target_system, measured_parameter, reported_value) VALUES
  ('CCTAGCAGGCTAATCTGGGTCACTCAAGGCTTGA', 'PPARg:RXRa 30nM:10nM, anti-RXR (NR concentration 30 nM, RXRa partner concentration 10 nM)', 'PBM binding z-score', 0.292),
  ('TCTCGCAGGCCAGAGGGTCACTCAAGAGGTACGG', 'PPARg:RXRa 30nM:10nM, anti-RXR (NR concentration 30 nM, RXRa partner concentration 10 nM)', 'PBM binding z-score', 2.05);

Now take the following sequence into account.
// query PBM binding z-score value for entry "ACTATTAGTTGAAACGAGGGCAACCGATAGGTTG" 0.292

----------
test system: PPARg DBDmut IVT, anti-PPARg (DBD mutation: PPARg1 K132A/R137A, NR concentration 270 nM); experiment: PBM binding z-score (relative to random genomic background probes); higher = stronger binding; sequences stand for … in GC…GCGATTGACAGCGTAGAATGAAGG
Binary call on PBM binding z-score: Met from 0.8 upward, Not met beneath that.

Before answering, review these 8 worked examples.
INSERT INTO results (ordered_residues, answer_label) VALUES
  ('TCATATAGGTAAATGCTAGGTGAACGTCCGATCT', 'Met'),
  ('CGAACTAGGACAAGGACAGTGAATCTCCGCACGC', 'Not met'),
  ('ATCTCTAGGTAACCAAGTTCAGTGAGTGCCGAAC', 'Met'),
  ('CAAACTAGGTCATTGACAGGACAGTGAATAGTAA', 'Met'),
  ('ATCTCTAGGTAAAGATAGTTCAGTCAATGCAAAT', 'Met'),
  ('TAGCCTAGGTCATGGGCCAGTCTACCACGCGAAC', 'Not met'),
  ('ATCTCTAGGTAAGACTCATTTCAGTGAAGAACGC', 'Met'),
  ('CCTACTGGGCCACGGTCATTGATCAGTCAAAGCA', 'Not met');

Could you now consider this next sequence?
Test whether the sequence "TGAATGAGGTTAAAGATCACGGAACGTGGCGTCG" records PBM binding z-score of 0.8 or higher. Not met

----------
tested on: LXRb homodimer (NR concentration 270 nM); experiment: PBM binding z-score (relative to random genomic background probes); higher = stronger binding; sequences stand for … in GC…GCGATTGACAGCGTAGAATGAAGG
# PBM binding z-score listing for each entry below
In your answer, state the number alone without any accompanying words.

// known answers, use as guide
INSERT INTO measurements (ordered_residues, target_system, measured_parameter, reported_value) VALUES
  ('TTACCAAGTTGAGCTGAGGTCGTTGATCCAACTC', 'LXRb homodimer (NR concentration 270 nM)', 'PBM binding z-score', -0.873),
  ('GCTAGCAGGCCAATTGGGTCACTCAATGACGGGC', 'LXRb homodimer (NR concentration 270 nM)', 'PBM binding z-score', -1.32),
  ('ATCTCTAGGTAAGCCTCAGTTCAGTGAAGAACGC', 'LXRb homodimer (NR concentration 270 nM)', 'PBM binding z-score', 0.861);

State the recorded PBM binding z-score for this entry: "CATTACGGGTCACTCCAGGTTATAGCATCGGAGT" 1.54

----------
system: RARg:RXRa (NR concentration 270 nM, RXRa partner concentration 90 nM); assay: PBM binding z-score (relative to random genomic background probes); higher = stronger binding; sequences stand for … in GC…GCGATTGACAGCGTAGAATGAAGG
Catalogue of PBM binding z-score values
API doc: respond with a numeric literal and nothing else, no unit.

The cases that follow already have their PBM binding z-score on record.
INSERT INTO assay_data (ordered_residues, reported_value) VALUES
  ('CCTCGGAGGACAGAGGGTCAGAGCTGTCCGCTTT', 2.45),
  ('CCTATTAGCTGACCATAAGGGCAACCGAAGCTCG', 0.474),
  ('CGTCCAAGGTCAGAGGTCAGTGAAGAGATGACGG', 7.02),
  ('GAGACTGGGGCATCAGCAGGTTACCATAACTTAA', 0.941),
  ('CAAACTAGGTCACCGGAAGGTCAAAGACCGCATG', 8.28);

Item under review: "GTACCAAGGTGAATACGTCGTTGATGAGTAGGCG" . Reported PBM binding z-score? 0.764

// returns reported PBM binding z-score for input "AATACAGCGTCATCGTAGGCCAGAGTACGCACAG" -0.121

I'd like to know its PBM binding z-score. The sequence in question is "AGAACGAGGGAACGCTGAGTTGATAGCAGAGTAG" -0.0293

Entry "CCGACTGGAGCAAAGGTTACCATACTCAGTACGA" has what PBM binding z-score? 1.89

Which PBM binding z-score reading was recorded for the sequence "AATACAGGGTCATCGTAGGCCATAGTACGCACAG" ? 5.77

Any idea what PBM binding z-score was measured for "TGTAGTTGGTCACGGAGGTCACACACGACGGGTA" ? 4.74

Which PBM binding z-score is reported for this sequence? "TCTTGTAGTTCAAAGGTTAAGAAAGCCGAAGCCT" 4.81

Which measured PBM binding z-score value corresponds to "TCATATAGGTAAAAGGTGAACGTCGGTGTGGTAA" ? 2.22

Could you tell me which PBM binding z-score is on file for "GTACCAAGGTGAATTGGTCGTTGATGAGTAGGCG" ? 0.331

Please report the recorded PBM binding z-score for "TGAATGGGGTTATAAGATCAGGGAACGTTGCAAA" . 2.3

So what's the measured PBM binding z-score for this one? "AGAACGAGGGCAATGAGTTGATAGCCCGGGTGGC" 0.874
